Data provenance: ChEMBL document CHEMBL1149106

Assay: Tested for inhibition of chymotrypsinogen by the compound; NI = No Inhibition
Measured quantity: k obs / 1

[
  {
    "Compound": "CCOC(=O)[C@H]1O[C@@H]1C(=O)N(CC(=O)O)NC(=O)[C@@H](NC(=O)[C@H](CCC(=O)O)NC(=O)[C@H](CC(=O)O)NC(=O)OCc1ccccc1)C(C)C",
    "k obs / 1": "46 M⁻¹ s⁻¹"
  }
]

Tell me measured k obs / 1 for CCOC(=O)[C@H]1O[C@@H]1C(=O)N(CC(=O)O)NC(=O)[C@@H](NC(=O)C(CCC(=O)O)NC(=O)[C@H](CC(C)C)NC(=O)OCc1ccccc1)[C@@H](C)O (stereo partly drawn) please.
36 M⁻¹ s⁻¹

---

System name: Caspase-3 (Homo sapiens) (UniProt P42574)
Sequence (P42574 29-175 limits assumed): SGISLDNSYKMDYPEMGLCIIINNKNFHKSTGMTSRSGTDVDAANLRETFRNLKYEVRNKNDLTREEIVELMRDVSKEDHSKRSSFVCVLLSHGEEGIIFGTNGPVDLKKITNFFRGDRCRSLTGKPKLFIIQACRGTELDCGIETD
Sequence (P42574 176-277 limits assumed): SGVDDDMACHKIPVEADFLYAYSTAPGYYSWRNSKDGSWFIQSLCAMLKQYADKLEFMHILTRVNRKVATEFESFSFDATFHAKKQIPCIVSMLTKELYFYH
Assay: Second-order inhibition rate of caspase-3 was determined by progress curve method
Measured quantity: k2
Lab note: write values as number then unit, every time.

[
  {
    "Compound": "CC(C)[C@H](NC(=O)C(CCC(=O)O)NC(=O)[C@H](CC(=O)O)NC(=O)OCc1ccccc1)C(=O)NN(CC(=O)O)C(=O)[C@H]1O[C@@H]1C(=O)OCc1ccccc1 (some centres not stated)",
    "k2": "1.91e+06 M⁻¹ s⁻¹"
  },
  {
    "Compound": "CC(C)[C@H](NC(=O)CCc1ccccc1)C(=O)N[C@@H](C)C(=O)NN(CC(=O)O)C(=O)[C@H]1O[C@@H]1C(=O)N[C@@H](C)C(=O)NCc1ccccc1",
    "k2": "260 M⁻¹ s⁻¹"
  },
  {
    "Compound": "CC(C)[C@H](NC(=O)[C@H](CCC(=O)O)NC(=O)OCc1ccccc1)C(=O)NN(CC(=O)O)C(=O)[C@@H]1O[C@H]1C(=O)N[C@@H](Cc1ccccc1)C(N)=O",
    "k2": "470 M⁻¹ s⁻¹"
  }
]

Kindly give each listed record's k2.
1. CCOC(=O)[C@H]1O[C@@H]1C(=O)N(CC(=O)O)NC(=O)[C@@H](NC(=O)[C@H](CCC(=O)O)NC(=O)[C@@H](NC(=O)OCc1ccccc1)[C@@H](C)CC)[C@@H](C)O
2. CC(C)C[C@H](NC(=O)OCc1ccccc1)C(=O)NC(CCC(=O)O)C(=O)N[C@H](C(=O)NN(CC(=O)O)C(=O)[C@H]1O[C@@H]1C(=O)N[C@@H](C)C(=O)NCc1ccccc1)[C@@H](C)O (some centres not stated)
3. CCOC(=O)[C@H]1O[C@@H]1C(=O)N(CC(=O)O)NC(=O)[C@@H](NC(=O)[C@H](CCC(=O)O)NC(=O)[C@H](CC(=O)O)NC(=O)OCc1ccccc1)C(C)C
4. CC(C)[C@H](NC(=O)C(CCC(=O)O)NC(=O)[C@H](CC(=O)O)NC(=O)OCc1ccccc1)C(=O)NN(CC(=O)O)C(=O)[C@H]1O[C@@H]1C(=O)NCc1ccccc1 (some centres not stated)
5. CC(C)[C@H](NC(=O)CCc1ccccc1)C(=O)N[C@@H](C)C(=O)NN(CC(=O)O)C(=O)[C@H]1O[C@@H]1C(=O)NCCc1ccccc1
6. CC(C)[C@H](NC(=O)CCc1ccccc1)C(=O)N[C@@H](C)C(=O)NN(CC(=O)O)C(=O)[C@H]1O[C@@H]1C(=O)OCc1ccccc1 (stereo in doubt; 23d(S,S))

1. 4080 M⁻¹ s⁻¹
2. 1280 M⁻¹ s⁻¹
3. 1.07e+06 M⁻¹ s⁻¹
4. 1.09e+06 M⁻¹ s⁻¹
5. 1110 M⁻¹ s⁻¹
6. 1470 M⁻¹ s⁻¹

Batch request: k2 for each of the following compounds.
1. CC(C)[C@H](NC(=O)CCc1ccccc1)C(=O)N[C@@H](C)C(=O)NN(CC(=O)O)C(=O)[C@H]1O[C@@H]1C(=O)N[C@@H](Cc1ccccc1)C(N)=O
2. CC[C@H](C)[C@H](NC(=O)OCc1ccccc1)C(=O)N[C@@H](CCC(=O)O)C(=O)N[C@H](C(=O)NN(CC(=O)O)C(=O)[C@@H]1O[C@H]1C(=O)N[C@@H](C)C(=O)NCc1ccccc1)[C@@H](C)O
3. CC(C)[C@H](NC(=O)CCc1ccccc1)C(=O)N[C@@H](C)C(=O)NN(CC(=O)O)C(=O)[C@H]1O[C@@H]1C(=O)N[C@@H](Cc1ccc(O)cc1)C(N)=O
4. CC(C)C[C@H](NC(=O)[C@H]1O[C@@H]1C(=O)N(CC(=O)O)NC(=O)[C@H](C)NC(=O)[C@@H](NC(=O)CCc1ccccc1)C(C)C)C(N)=O
5. CC[C@H](C)[C@H](NC(=O)OCc1ccccc1)C(=O)N[C@@H](CCC(=O)O)C(=O)N[C@H](C(=O)NN(CC(=O)O)C(=O)[C@@H]1O[C@H]1C(=O)NCc1ccccc1)[C@@H](C)O
6. CC(C)[C@H](NC(=O)CCc1ccccc1)C(=O)N[C@@H](C)C(=O)NN(CC(=O)O)C(=O)[C@H]1O[C@@H]1C(=O)OCc1ccccc1 (stereo in doubt)
7. CC(C)C[C@H](NC(=O)OCc1ccccc1)C(=O)NC(CCC(=O)O)C(=O)N[C@H](C(=O)NN(CC(=O)O)C(=O)[C@H]1O[C@@H]1C(=O)NCCc1ccccc1)[C@@H](C)O (some centres not stated)
8. CCNC(=O)[C@H]1O[C@@H]1C(=O)N(CC(=O)O)NC(=O)[C@H](C)NC(=O)[C@@H](NC(=O)CCc1ccccc1)C(C)C

1. 625 M⁻¹ s⁻¹
2. 3050 M⁻¹ s⁻¹
3. 87 M⁻¹ s⁻¹
4. 420 M⁻¹ s⁻¹
5. 6500 M⁻¹ s⁻¹
6. 680 M⁻¹ s⁻¹
7. 2550 M⁻¹ s⁻¹
8. 1910 M⁻¹ s⁻¹

Provide each entry's k2 from the list below.
1. CCOC(=O)[C@H]1O[C@@H]1C(=O)N(CC(=O)O)NC(=O)[C@@H](NC(=O)C(CCC(=O)O)NC(=O)[C@H](CC(C)C)NC(=O)OCc1ccccc1)[C@@H](C)O (some centres not stated)
2. CC(C)[C@H](NC(=O)CCc1ccccc1)C(=O)N[C@@H](C)C(=O)NN(CC(=O)O)C(=O)[C@H]1O[C@@H]1C(=O)NCc1ccccc1

1. 3210 M⁻¹ s⁻¹
2. 1610 M⁻¹ s⁻¹

Okay, here is my list. What is k2 for each of these?
1. CC(C)[C@H](NC(=O)[C@H](CCC(=O)O)NC(=O)OCc1ccccc1)C(=O)NN(CC(=O)O)C(=O)[C@H]1O[C@@H]1C(=O)NCCc1ccccc1
2. CC[C@H](C)[C@H](NC(=O)OCc1ccccc1)C(=O)N[C@@H](CCC(=O)O)C(=O)N[C@H](C(=O)NN(CC(=O)O)C(=O)[C@H]1O[C@@H]1C(=O)OCc1ccccc1)[C@@H](C)O
3. CCOC(=O)[C@@H]1O[C@H]1C(=O)N(CC(=O)O)NC(=O)[C@@H](NC(=O)C(CCC(=O)O)NC(=O)[C@H](CC(=O)O)NC(=O)OCc1ccccc1)C(C)C (some centres not stated)

27300 M⁻¹ s⁻¹
9500 M⁻¹ s⁻¹
464000 M⁻¹ s⁻¹

---

System name: Cathepsin D (Homo sapiens) (UniProt P07339)
Sequence (P07339 65-162 limits assumed): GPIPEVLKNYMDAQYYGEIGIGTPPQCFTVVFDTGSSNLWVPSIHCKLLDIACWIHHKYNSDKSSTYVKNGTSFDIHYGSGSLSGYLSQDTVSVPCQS
Sequence (P07339 169-412 limits assumed): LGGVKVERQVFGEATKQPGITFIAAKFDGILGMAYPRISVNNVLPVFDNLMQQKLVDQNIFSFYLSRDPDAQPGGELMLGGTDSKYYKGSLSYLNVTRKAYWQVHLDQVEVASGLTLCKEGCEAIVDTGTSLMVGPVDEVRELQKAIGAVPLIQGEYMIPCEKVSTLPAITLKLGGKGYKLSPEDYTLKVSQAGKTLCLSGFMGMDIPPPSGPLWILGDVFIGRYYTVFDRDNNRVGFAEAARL
Assay: Tested for inhibition of human cathepsin D by the compound; NI = No Inhibition
Active and inactive are the calls of the source. The calls are words filed in the database; no cut-off is given here.

[
  {
    "Molecule": "CC(C)[C@H](NC(=O)CCc1ccccc1)C(=O)N[C@@H](C)C(=O)NN(CC(=O)O)C(=O)[C@H]1O[C@@H]1C(=O)OCc1ccccc1 (stereo in doubt; 23d(S,S))",
    "k obs / 1": "inactive"
  },
  {
    "Molecule": "CCOC(=O)[C@H]1O[C@@H]1C(=O)N(CC(=O)O)NC(=O)[C@@H](NC(=O)[C@H](CCC(=O)O)NC(=O)[C@@H](NC(=O)OCc1ccccc1)[C@@H](C)CC)[C@@H](C)O",
    "k obs / 1": "inactive"
  },
  {
    "Molecule": "CCOC(=O)[C@H]1O[C@@H]1C(=O)N(CC(=O)O)NC(=O)[C@@H](NC(=O)[C@H](CCC(=O)O)NC(=O)OCc1ccccc1)C(C)C",
    "k obs / 1": "inactive"
  }
]

---

So I've got a bunch of molecules here, and I need their k2 values.
System name: Caspase-6 (Homo sapiens) (UniProt P55212)
Sequence (P55212 24-179 limits assumed): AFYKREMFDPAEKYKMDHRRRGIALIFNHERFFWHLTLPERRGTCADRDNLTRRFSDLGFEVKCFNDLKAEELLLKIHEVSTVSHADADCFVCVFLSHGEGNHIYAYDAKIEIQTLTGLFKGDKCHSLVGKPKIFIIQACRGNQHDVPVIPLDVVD
Sequence (P55212 194-293 limits assumed): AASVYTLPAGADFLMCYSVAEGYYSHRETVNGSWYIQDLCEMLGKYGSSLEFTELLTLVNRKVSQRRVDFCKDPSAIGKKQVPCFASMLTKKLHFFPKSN
Assay: Second-order inhibition rate of caspase-6 was determined by progress curve method
Give bare numbers, in M⁻¹ s⁻¹.

Consider the following illustrative entries.
[
  {
    "Molecule": "CC(C)[C@H](NC(=O)CCc1ccccc1)C(=O)N[C@@H](C)C(=O)NN(CC(=O)O)C(=O)[C@H]1O[C@@H]1C(=O)NCC(O)c1ccccc1 (stereo partly specified)",
    "Measured quantity": "k2",
    "Experimental value": 63
  },
  {
    "Molecule": "CCOC(=O)[C@@H]1O[C@H]1C(=O)N(CC(=O)O)NC(=O)[C@@H](NC(=O)C(CCC(=O)O)NC(=O)[C@H](CC(C)C)NC(=O)OCc1ccccc1)[C@@H](C)O (stereo partly specified)",
    "Measured quantity": "k2",
    "Experimental value": 4390
  },
  {
    "Molecule": "CC(C)[C@H](NC(=O)CCc1ccccc1)C(=O)N[C@@H](C)C(=O)NN(CC(=O)O)C(=O)[C@H]1O[C@@H]1C(=O)NCc1ccccc1",
    "Measured quantity": "k2",
    "Experimental value": 155
  },
  {
    "Molecule": "CCOC(=O)[C@H]1O[C@@H]1C(=O)N(CC(=O)O)NC(=O)[C@@H](NC(=O)C(CCC(=O)O)NC(=O)[C@H](CC(C)C)NC(=O)OCc1ccccc1)[C@@H](C)O (stereo partly specified)",
    "Measured quantity": "k2",
    "Experimental value": 8620
  },
  {
    "Molecule": "CC[C@H](C)[C@H](NC(=O)OCc1ccccc1)C(=O)N[C@@H](CCC(=O)O)C(=O)N[C@H](C(=O)NN(CC(=O)O)C(=O)[C@H]1O[C@@H]1C(=O)OCc1ccccc1)[C@@H](C)O",
    "Measured quantity": "k2",
    "Experimental value": 86200
  }
]

Turning now to a further molecule:
Using the record for CC(C)[C@H](NC(=O)[C@H](CCC(=O)O)NC(=O)OCc1ccccc1)C(=O)NN(CC(=O)O)C(=O)[C@H]1O[C@@H]1C(=O)NCCc1ccccc1 , state its measured k2.
3130
